test: in vivo
Set-up: species or system male Sprague-Dawley rats
conditionDescription: male, Sprague-Dawley, rat, sc, 1 mg/kg, Tmax of capsaicin, Mean ± SD
observedProperty: Tmax (min)
Write the number in min without appending the unit.

Task: Find the measured Tmax of COc1cc(CNC(=O)CCCCC=CC(C)C)ccc1O [Capsaicin, 8-methyl-N-vanillyl-6-nonenamide] and report it.
Result: 30
